- Test system: MCF7
- assay.protocol: Growth inhibition of human MCF7 cells by MTT assay
- Format: functional
# GI50 binned as Low (below 20 µM), Medium (20 µM to below 60 µM), High (60 µM or more)

molecule: C=Cc1cccc2c1N(C)Cc1cc3c(cc1-2)OCO3
assigned.category: High
//
molecule: CC(C)[Si](O[C@H]1[C@H]2c3cc4c(cc3CN3CCC(=C[C@@H]1O)[C@H]23)OCO4)(C(C)C)C(C)C
assigned.category: Medium
//
molecule: CCO[C@H]1[C@H]2c3cc4c(cc3CN3CCC(=C[C@@H]1OCC)[C@H]23)OCO4
assigned.category: Low
//
molecule: COCO[C@H]1C=C2CCN3Cc4cc5c(cc4[C@H]([C@@H]1O)[C@@H]23)OCO5
assigned.category: High
//
molecule: COCO[C@H]1[C@H]2c3cc4c(cc3CN3CCC(=C[C@@H]1OCOC)[C@H]23)OCO4
assigned.category: Medium
//
molecule: C#CCO[C@H]1[C@H]2c3cc4c(cc3CN3CCC(=C[C@@H]1OCC#C)[C@H]23)OCO4
assigned.category: Medium
//
molecule: O[C@H]1[C@H]2c3cc4c(cc3CN3CCC(=C[C@@H]1O)[C@H]23)OCO4 [LYCORINE]
assigned.category: Low
//
molecule: COCCO[C@H]1[C@H]2c3cc4c(cc3CN3CCC(=C[C@@H]1OCCOC)[C@H]23)OCO4
assigned.category: Medium
//
molecule: CO[C@H]1[C@H]2c3cc4c(cc3CN3CCC(=C[C@@H]1O[Si](C(C)C)(C(C)C)C(C)C)[C@H]23)OCO4
assigned.category: Medium
